- Test system: male mice
- experimental.details: extension of sleeping time of depressant drugs by synergists
- Format: in vivo, male mice (Swiss albino white)
- condition.details: Noludar 110 mg/kg; synergist 110 mg/kg; treated/control
measured.quantity: Relative Sleeping Time, Noludar
Just the number.

Consider the reported Relative Sleeping Time, Noludar for these compounds:
C#CCOCc1cccc(Cl)c1[N+](=O)[O-] = 1.8
C#CCOCc1cccc([N+](=O)[O-])c1Cl = 1.8
C#CCOCc1ccc(Cl)c(Cl)c1Cl = 1.0
C#CCOCc1c(Cl)cccc1Cl = 2.2
C#CCOC(c1ccc(Cl)cc1Cl)C(C)[N+](=O)[O-] (stereo not drawn) = 2.7

Moving on to the next compound.
Data request: Give reported Relative Sleeping Time, Noludar value for C#CCn1nc(Cl)c2ccccc21
Data returned: 1.0

* * *

- Tested on: Swiss albino, white male mice
- experimental.details: acute toxicity and synergism of acute toxicity in mice
- Format: in vivo
- condition.details: Dimetilan 8 + synergist 80 mg/kg i.p.; 48 hours; eight mice
Quick reference: number of mice dead, with Dimetilan of the listed items.
Just the number.

C#CCOC(c1ccc(Cl)cc1Cl)C(C)[N+](=O)[O-] (centres unmarked) = 4
C#CCOCc1c(Cl)cccc1[N+](=O)[O-] = 0
C#CCON=C(C)c1ccc2ccccc2c1 = 0
C#CCOCc1ccc([N+](=O)[O-])cc1Cl = 0
C#CCOCc1ccc([N+](=O)[O-])c(Cl)c1 = 0

Moving on to the next molecule.
Data request: Give reported number of mice dead, with Dimetilan value for C#CCOC(c1ccc(Cl)cc1)C(C)[N+](=O)[O-] (centres unmarked)
Data returned: 5

* * *

Quick reference: percent kill after 24 hours, with pyrethrum of the listed items.
- Tested on: polyvalent resistant (CH strain) houseflies
- experimental.details: whole plant or invertebrate
- Format: in vivo
- condition.details: Pyrethrum 2 + synergist 4 μg/fly; CH strain

Consider the reported percent kill after 24 hours, with pyrethrum for these compounds:
C#CCOCc1ccc(Cl)c(Cl)c1Cl = 30%
C#CCON=Cc1ccc(OC)c(OC)c1 = 15%
C#CCON=Cc1ccc(Cl)cc1Cl = 47%

Moving on to the next compound.
Data request: Give reported percent kill after 24 hours, with pyrethrum value for C#CCON=C(C)c1ccc2ccccc2c1
Data returned: 35%

* * *

Quick reference: percent kill after 24 hours, with Diazinon of the listed items.
- System: IN/WHO strain house flies
- experimental.details: topical application, percent kill after 24 hours, susceptible IN/WHO strain
- Format: in vivo, female)
- condition.details: Diazinon 0.03 + synergist 0.15 μg/fly
Report the value in % with no unit label.

Consider the reported percent kill after 24 hours, with Diazinon for these molecules:
C#CCOCc1c(Cl)ccc(Cl)c1Cl [II-E] = 45
C#CCON=Cc1cccc([N+](=O)[O-])c1 [I-B] = 22
C#CCOCc1ccccc1[N+](=O)[O-] [II-P, 2-nitrobenzyl 2-propynyl ether] = 30
C#CCON=C(C)c1ccc(Cl)cc1 [I-D] = 50
C#CCOCc1ccc(Cl)c(Cl)c1Cl [II-D] = 40
C#CCOC(c1ccc(Cl)cc1)C(C)[N+](=O)[O-] (stereo not drawn) [IV-C] = 29
C#CCON=C(C)c1ccc2ccccc2c1 [I-F] = 24
C#CCOCc1ccc(Cl)c(Cl)c1 [II-C] = 23

Moving on to the next molecule.
Data request: Give reported percent kill after 24 hours, with Diazinon value for C#CCOCc1cccc2ccccc12 [II-R, α-napthylmethyl 2-propynyl ether]
Data returned: 22
